# credit: PubChem BioAssay (NCI)

System: UACC-62 melanoma
assay.method.text: NCI-60 one-dose screen, 48 h (100 = growth as untreated, 0 = no growth, -100 = all killed)
experimental.conditions: 10 µM unless noted
The panel holds about 83,000 compounds, 20% with a hit somewhere; the sample as a whole holds those more often.
growth reference
measurement.kind: growth (%)

>>> numeric_readout("COc1ccc(Oc2nc(Nc3ccc(N4CCOCC4)cc3)ncc2NC(=O)Nc2cccc(OC)c2)cc1")
46.8
>>> numeric_readout("O=C1Nc2ccccc2/C1=C\\c1nc(C2CCN(S(=O)(=O)c3ccc(F)cc3)CC2)n2ccccc12")
39.1
>>> numeric_readout("COc1cc(C2CC(c3ccc(Cl)cc3)=NN2C(C)=O)ccc1Oc1ccnc2cc(Cl)ccc12 (centres undefined)")
60.5
>>> numeric_readout("COc1ccc(CC2c3cc(OC)c(OC)cc3CC[N+]2(C)CCC(=O)OCCCCCOC(=O)CC[N+]2(C)CCc3cc(OC)c(OC)cc3C2Cc2ccc(OC)c(OC)c2)cc1OC (centres undefined)")
93.3
